system: G-402; test: cells; format: functional, cell-based; settings: Homo sapiens
Description: SANGER: Inhibition of human G-402 cell growth in a cell viability assay.
The threshold is 20 nM. Values of IC50 beneath it are tagged 1 (yes); values meeting or exceeding it are tagged 0 (no).

Record excerpt, results attached:
molecule=Fc1cc(-c2cc[nH]/c(=N/c3ccc(-n4cnc(N5CCOCC5)n4)cc3)n2)cc(N2CCOCC2)c1 category_label="0 (no)"
molecule="C[C@]12O[C@H](C[C@]1(O)CO)n1c3ccccc3c3c4c(c5c6ccccc6n2c5c31)CNC4=O [LESTAURTINIB]" category_label="0 (no)"
molecule="CC[C@]1(O)C[C@@H]2CN(CCc3c([nH]c4ccccc34)[C@@](C(=O)OC)(c3cc4c(cc3OC)N(C)[C@H]3[C@@](O)(C(=O)OC)[C@H](OC(C)=O)[C@]5(CC)C=CCN6CC[C@]43[C@@H]65)C2)C1 [VINBLASTINE]" category_label="1 (yes)"
molecule="C/C=C(/C)C(=O)O[C@H]1C(C)=C2[C@H]([C@@H]1OC(=O)CCCCCCC)[C@@](C)(OC(C)=O)C[C@H](OC(=O)CCC)[C@@]1(O)[C@H]2OC(=O)[C@@]1(C)O [THAPSIGARGIN]" category_label="1 (yes)"
molecule="CC[C@@]1(O)C(=O)OCc2c1cc1n(c2=O)Cc2cc3ccccc3nc2-1 [CAMPTOTHECIN]" category_label="0 (no)"

# strict comparison: is reported IC50 < 20 nM? input = "Cn1cc(/C=C2\C(=O)Nc3cccnc32)c2ccccc21" 0 (no)

###

test system: KYSE-180; assay: cells; type: functional, cell-based; settings: Homo sapiens;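 note: growth inhibition of KYSE-180 cells, read out with a cell viability assay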
Description: SANGER: Inhibition of human KYSE-180 cell growth in a cell viability assay.
pIC50: −log10 of the molar value.
Catalogue of molecules with associated pIC50

Known pIC50 results, listed for orientation:
molecule=Cn1cc(/C=C2\C(=O)Nc3cccnc32)c2ccccc21 assay_metric=pIC50 measurement="< 5.70"
molecule="COc1cc(Nc2c(C#N)cnc3cc(OCCCN4CCN(C)CC4)c(OC)cc23)c(Cl)cc1Cl [BOSUTINIB]" assay_metric=pIC50 measurement="< 5.70"
molecule="C[C@]1(c2nc3c(C(N)=O)cccc3[nH]2)CCCN1 [VELIPARIB]" assay_metric=pIC50 measurement="< 5.30"
molecule="CC[C@]1(O)C[C@@H]2CN(CCc3c([nH]c4ccccc34)[C@@](C(=O)OC)(c3cc4c(cc3OC)N(C)[C@H]3[C@@](O)(C(=O)OC)[C@H](OC(C)=O)[C@]5(CC)C=CCN6CC[C@]43[C@@H]65)C2)C1 [VINBLASTINE]" assay_metric=pIC50 measurement=8.19

Now let's try a different one.
What value of measured pIC50 is listed for "O=c1[nH]c2ccccc2n1C1CCN(Cc2ccc(-c3nc4cc5[nH]cnc5cc4nc3-c3ccccc3)cc2)CC1" ? < 5.59

###

test system: LAMA-84; assay: cells; assay type: functional, cell-based; conditions: Homo sapiens
Description: SANGER: Inhibition of human LAMA-84 cell growth in a cell viability assay.
Catalogue of molecules with associated IC50
Provide the reading as a plain figure in nM.

What value of measured IC50 is listed for "Cn1c(=O)n(-c2ccc(C(C)(C)C#N)cc2)c2c3cc(-c4cnc5ccccc5c4)ccc3ncc21" ? 35.9

What value of measured IC50 is listed for "O=c1cc(N2CCOCC2)oc2c(-c3cccc4c3sc3ccccc34)cccc12" ? 988

What value of measured IC50 is listed for "CC(C)=CC[C@@H](O)C1=CC(=O)c2c(O)ccc(O)c2C1=O" ? 1210

What value of measured IC50 is listed for "CC(=O)c1c(C)c2cnc(Nc3ccc(N4CCNCC4)cn3)nc2n(C2CCCC2)c1=O" ? 258

###

test system: SW684; test: cells; format: functional, cell-based; conditions: Homo sapiens;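 note: growth inhibition of human SW684 cells, measured by a cell viability assay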
Description: SANGER: Inhibition of human SW684 cell growth in a cell viability assay.
ASSAY METRIC: IC50

molecule=N#C/C(=C1/Nc2ccccc2S1)c1ccnc(NCCc2cccnc2)n1 measurement="> 8 µM"

What value of measured IC50 is listed for COc1cc(C)c(Sc2cnc(NC(=O)c3ccc(CNC(C)C(C)(C)C)cc3)s2)cc1C(=O)N1CCN(C(C)=O)CC1 (configuration not stated) ? > 10.2 µM

###

tested on: CAL-62; assay: cells; format: functional, cell-based; details: Homo sapiens
Description: SANGER: Inhibition of human CAL-62 cell growth in a cell viability assay.
ASSAY METRIC: pIC50
The read-out pIC50 is expressed as -log10 of concentration in moles per litre.

smi=O=C(CCCCCCC(=O)Nc1ccccc1)NO measurement=5.45
smi=C[C@]12O[C@H](C[C@]1(O)CO)n1c3ccccc3c3c4c(c5c6ccccc6n2c5c31)CNC4=O measurement=6.59
smi=CO[C@@]12[C@H](COC(N)=O)C3=C(C(=O)C(C)=C(N)C3=O)N1C[C@@H]1N[C@@H]12 measurement=6.62

What value of measured pIC50 is listed for "CC[C@@]1(O)C(=O)OCc2c1cc1n(c2=O)Cc2cc3ccccc3nc2-1" ? 9.01

###

Catalogue of compounds with associated IC50
test system: DMS-153; assay: cells; type: functional, cell-based; settings: Homo sapiens
Description: SANGER: Inhibition of human DMS-153 cell growth in a cell viability assay.
Provide the reading as a plain figure in nM.

Known IC50 results, listed for orientation:
smi=Cc1n[nH]c2ccc(-c3cncc(OC[C@@H](N)Cc4c[nH]c5ccccc45)c3)cc12 measurement=669
smi=Fc1cc(-c2cc[nH]/c(=N/c3ccc(-n4cnc(N5CCOCC5)n4)cc3)n2)cc(N2CCOCC2)c1 measurement=1240

Now let's try a different one.
What value of measured IC50 is listed for "CCNC(=O)c1noc(-c2cc(C(C)C)c(O)cc2O)c1-c1ccc(CN2CCOCC2)cc1" ? 77.3

###

Catalogue of compounds with associated IC50
system: NB13; test: cells; assay type: functional, cell-based; settings: Homo sapiens;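 note: cell viability readout measuring growth inhibition of human NB13 cells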
Description: SANGER: Inhibition of human NB13 cell growth in a cell viability assay.
Provide the reading as a plain figure in nM.

Known IC50 results, listed for orientation:
compound=Fc1cc(-c2cc[nH]/c(=N/c3ccc(-n4cnc(N5CCOCC5)n4)cc3)n2)cc(N2CCOCC2)c1 assay_metric=IC50 measurement_unit=nM measurement=4910
compound="C/C=C(/C)C(=O)O[C@H]1C(C)=C2[C@H]([C@@H]1OC(=O)CCCCCCC)[C@@](C)(OC(C)=O)C[C@H](OC(=O)CCC)[C@@]1(O)[C@H]2OC(=O)[C@@]1(C)O [THAPSIGARGIN]" assay_metric=IC50 measurement_unit=nM measurement=9.45

Notebook: pull reported IC50 for NB13, entry CCNC(=O)c1noc(-c2cc(C(C)C)c(O)cc2O)c1-c1ccc(CN2CCOCC2)cc1 [LUMINESPIB] 42.3

Notebook: pull reported IC50 for NB13, entry CC(C)=CC[C@@H](O)C1=CC(=O)c2c(O)ccc(O)c2C1=O [SHIKONIN] 317

Notebook: pull reported IC50 for NB13, entry Cc1n[nH]c2ccc(-c3cncc(OC[C@@H](N)Cc4c[nH]c5ccccc45)c3)cc12 [A-443654] 332

###

system: KINGS-1; experiment: cells; assay type: functional, cell-based; details: Homo sapiens;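 note: cell viability assay measuring suppression of KINGS-1 cell growth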
Description: SANGER: Inhibition of human KINGS-1 cell growth in a cell viability assay.
pIC50: −log10 of the molar value.
ASSAY METRIC: pIC50

Known pIC50 results, listed for orientation:
molecule=CCCS(=O)(=O)Nc1ccc(F)c(C(=O)c2c[nH]c3ncc(Cl)cc23)c1F assay_metric=pIC50 measurement="< 5.00"
molecule=CC(=O)c1c(C)c2cnc(Nc3ccc(N4CCNCC4)cn3)nc2n(C2CCCC2)c1=O assay_metric=pIC50 measurement="< 5.40"
molecule=Cn1cc(/C=C2\C(=O)Nc3cccnc32)c2ccccc21 assay_metric=pIC50 measurement="< 5.70"
molecule=N#C/C(=C1/Nc2ccccc2S1)c1ccnc(NCCc2cccnc2)n1 assay_metric=pIC50 measurement="< 5.10"
molecule=Cc1nc(Nc2ncc(C(=O)Nc3c(C)cccc3Cl)s2)cc(N2CCN(CCO)CC2)n1 assay_metric=pIC50 measurement=6.78
molecule="CC(O)(CS(=O)(=O)c1ccc(F)cc1)C(=O)Nc1ccc(C#N)c(C(F)(F)F)c1 (configuration not stated) [BICALUTAMIDE]" assay_metric=pIC50 measurement="< 5.99"

What value of measured pIC50 is listed for "C[C@]12O[C@H](C[C@]1(O)CO)n1c3ccccc3c3c4c(c5c6ccccc6n2c5c31)CNC4=O" ? 6.26

###

system: NCI-H1437; assay: cells; type: functional, cell-based; details: Homo sapiens;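 note: growth inhibition of human NCI-H1437 cells, read out by a cell viability assay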
Description: SANGER: Inhibition of human NCI-H1437 cell growth in a cell viability assay.
ASSAY METRIC: pIC50
The read-out pIC50 is expressed as -log10 of concentration in moles per litre.

Known pIC50 results, listed for orientation:
smi=CC(C)=CC[C@@H](O)C1=CC(=O)c2c(O)ccc(O)c2C1=O assay_metric=pIC50 measurement=5.81
smi=CCNC(=O)c1noc(-c2cc(C(C)C)c(O)cc2O)c1-c1ccc(CN2CCOCC2)cc1 assay_metric=pIC50 measurement=7.20
smi=Fc1cc(-c2cc[nH]/c(=N/c3ccc(-n4cnc(N5CCOCC5)n4)cc3)n2)cc(N2CCOCC2)c1 assay_metric=pIC50 measurement=6.61
smi=NC(=O)c1ncn([C@@H]2O[C@H](COP(=O)(O)O)[C@@H](O)[C@H]2O)c1N assay_metric=pIC50 measurement=3.22
smi=CC[C@@]1(O)C(=O)OCc2c1cc1n(c2=O)Cc2cc3ccccc3nc2-1 assay_metric=pIC50 measurement=7.46

Now let's try a different one.
What value of measured pIC50 is listed for "N#C/C(=C1/Nc2ccccc2S1)c1ccnc(NCCc2cccnc2)n1" ? 5.38

Reference for the values: ChEMBL document CHEMBL1201861
